Data origin, for the record: patent US20200247894A1

# Test Target: T1, Human IL2Rγ extracellular domain expressed with a C-terminal myc-myc-hexahistidine tag (human)
# T1 construct: also called hIL-2Rg-MMH; hIL-2RG-MMH
# T1 chain: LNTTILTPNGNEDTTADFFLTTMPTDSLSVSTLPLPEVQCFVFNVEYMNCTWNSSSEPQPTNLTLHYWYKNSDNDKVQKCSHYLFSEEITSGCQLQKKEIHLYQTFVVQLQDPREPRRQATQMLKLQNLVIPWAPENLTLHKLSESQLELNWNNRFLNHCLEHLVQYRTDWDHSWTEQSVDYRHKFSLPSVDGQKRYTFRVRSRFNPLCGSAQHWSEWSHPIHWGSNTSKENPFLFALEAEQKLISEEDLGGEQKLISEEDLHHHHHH
# Assay Method Text: SPR Biacore 4000, mAb captured by anti-hFc, HBS-ET, 37C
Outcome Measure: koff (s⁻¹)
Response body: numeric value in s⁻¹, unit text excluded.

Ask: Find the recorded koff belonging to H4H12900P (antibody, human IgG4 S228P, kappa, V domains shown, anti-IL2Rγ monoclonal antibody expressed with human IgG4 Fc) VH: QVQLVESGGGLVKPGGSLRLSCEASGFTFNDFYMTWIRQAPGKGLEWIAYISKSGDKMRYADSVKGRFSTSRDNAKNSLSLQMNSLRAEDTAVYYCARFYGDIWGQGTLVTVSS VL: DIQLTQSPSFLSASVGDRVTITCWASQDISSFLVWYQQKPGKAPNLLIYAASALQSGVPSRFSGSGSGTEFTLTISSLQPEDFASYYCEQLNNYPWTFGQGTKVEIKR and report it.
Result: 0.00184

Ask: Find the recorded koff belonging to H4H12899P (antibody, human IgG4 S228P, kappa, V domains shown, anti-IL2Rγ monoclonal antibody expressed with human IgG4 Fc) VH: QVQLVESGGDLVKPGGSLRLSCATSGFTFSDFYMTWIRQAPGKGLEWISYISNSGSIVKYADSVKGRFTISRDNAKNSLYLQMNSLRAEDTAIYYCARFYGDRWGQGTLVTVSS VL: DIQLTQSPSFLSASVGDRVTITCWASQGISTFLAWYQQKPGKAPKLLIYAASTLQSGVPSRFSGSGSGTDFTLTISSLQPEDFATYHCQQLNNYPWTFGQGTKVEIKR and report it.
Result: 0.00249

Ask: Find the recorded koff belonging to H4H12871P (antibody, human IgG4 S228P, kappa, V domains shown, anti-IL2Rγ monoclonal antibody expressed with human IgG4 Fc; also called REGN9434) VH: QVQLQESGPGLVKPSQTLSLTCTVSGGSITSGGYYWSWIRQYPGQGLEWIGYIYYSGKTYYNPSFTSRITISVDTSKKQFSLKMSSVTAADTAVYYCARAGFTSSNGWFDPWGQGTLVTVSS VL: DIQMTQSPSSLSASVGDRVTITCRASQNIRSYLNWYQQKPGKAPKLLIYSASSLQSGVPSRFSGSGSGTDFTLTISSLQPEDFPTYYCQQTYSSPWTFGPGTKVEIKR and report it.
Result: 0.00266
